TESTED TARGET: T1, human CD33 extracellular domain (human, UniProt P20138 18-259)
T1 construct: soluble monomeric ECD; also called human CD33 ECD; hCD33
PROTOCOL DETAILS: SPR, Fab captured, 37C;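 further: Anti-CD33 Fabs captured on anti-Fab chip, soluble monomeric CD33 or its domains flowed over at several concentrations, double-referenced data fitted 1:1, Kd taken as koff/kon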
ASSAY METRIC: Kd (nM)
Just the number in nM, nothing appended.

[[record]]
binder = "ADI-11826 Fab (Fab, V domains shown, Fab fragment; also called Ab26) VH: EVQLVESGGGLVQPGGSLRLSCAASGFTFPGYWMSWVRQAPGKGLEWVANINQDGSEVYYVDSVKGRFTISRDNAKNSLYLQMNSLRAEDTAVYYCAREANYYGNVGDDYWGQGTLVTVSS VL: DIQMTQSPSSLSASVGDRVTITCRASQSIYNYLNWYQQKPGKAPKLLIYAASSTQSGVPSRFSGSGSGTDFTLTISSLQPEDFATYYCQQAFHVPITFGGGTKVEIK"
unit_symbol = "nM"
recorded_number = 2.63

[[record]]
binder = "ADI-10157 Fab (Fab, V domains shown, Fab fragment; also called Ab13) VH: QVQLQESGPGLVKPSETLSLTCTVSGGSISSYYWSWIRQPPGKGLEWIGSIYYSGSTNYNPSLKSRVTISVDTSKNQFSLKLSSVTAADTAVYYCARVGGVYSTIETYGMDVWGQGTTVTVSS VL: EIVMTQSPATLSVSPGERATLSCRASQSVSSNLAWYQQKPGQAPRLLIYGASTRATGIPARFSGSGSGTEFTLTISSLQSEDFAVYYCQQYTVYPPTFGGGTKVEIK"
unit_symbol = "nM"
recorded_number = 2.69

[[record]]
binder = "ADI-11825 Fab (Fab, V domains shown, Fab fragment; also called Ab25) VH: EVQLVESGGGLVQPGGSLRLSCAASGFTFGGYWMSWVRQAPGKGLEWVANINQDGSEEYYVDSVKGRFTISRDNAKNSLYLQMNSLRAEDTAVYYCAREANYYGNVGDDYWGQGTLVTVSS VL: DIQMTQSPSSLSASVGDRVTITCRASQSIYNYLNWYQQKPGKAPKLLIYAASNLHSGVPSRFSGSGSGTDFTLTISSLQPEDFATYYCQQAFHVPITFGGGTKVEIK"
unit_symbol = "nM"
recorded_number = 1.78

[[record]]
binder = "ADI-10161 Fab (Fab, V domains shown, Fab fragment; also called Ab16) VH: EVQLVESGGGLVQPGGSLRLSCAASGFTFSSYWMSWVRQAPGKGLEWVANINQDGSEKYYVDSVKGRFTISRDNAKNSLYLQMNSLRAEDTAVYYCAREGGDSWYHAFDIWGQGTMVTVSS VL: DIQMTQSPSSVSASVGDRVTITCRASQGISSWLAWYQQKPGKAPKLLIYAASNLQSGVPSRFSGSGSGTDFTLTISSLQPEDFATYYCQQKLSLPLTFGGGTKVEIK"
unit_symbol = "nM"
recorded_number = 20.6

[[record]]
binder = "ADI-11819 Fab (Fab, V domains shown, Fab fragment; also called Ab8) VH: EVQLVESGGGLVKPGGSLRLSCAASGFTFSSYAMSWVRQAPGKGLEWVSSISSSSEGIYYADSVKGRFTISRDNAKNSLYLQMNSLRAEDTAVYYCAREGGPYYDSSGYFVYYGMDVWGQGTTVTVSS VL: DIQMTQSPSTLSASVGDRVTITCRASNSISSWLAWYQQKPGKAPKLLIYEASSTKSGVPSRFSGSGSGTEFTLTISSLQPDDFATYYCQQYDDLPTFGGGTKVEIK"
unit_symbol = "nM"
recorded_number = 0.02


Shifting focus to the binder that follows.
In plain terms, ADI-10164 Fab (Fab, V domains shown, Fab fragment; also called Ab18) VH: QVQLQESGPGLVKPSETLSLTCAVSGYSISSGYYWGWIRQPPGKGLEWIGSIYHSGSTNYNPSLKSRVTISVDTSKNQFSLKLSSVTAADTAVYYCARLPPWFGFSYFDLWGRGTLVTVSS VL: EIVLTQSPATLSLSPGERATLSCRASQSVSSYLAWYQQKPGQAPRLLIYDASNRATGIPARFSGSGSGTDFTLTISSLEPEDFAVYYCQQVDNYPPTFGGGTKVEIK has a documented Kd of 31.5
